assay: NCI Yeast Anticancer Drug Screen. Data for the mec2-1 strain (AID 157); conditions: S. cerevisiae mec2-1 strain, at 5.0 µM (retest, dose inferred, filed as 0.5)
The panel holds about 79,000 compounds, 15% with a hit somewhere; the sample as a whole holds those more often. Activity calls are given as the source filed them. Cut-off read from the data, not from the text of the source: active = growth inhibition above about 70%; inactive = the rest.
Hi there, use one of these labels in your reply, thanks! Y for active, N for inactive

Exam item: Test call, this molecule: Cc1cc([N+](=O)[O-])c(O)c([N+](=O)[O-])c1C
Marked response: N

Exam item: Same read-out for COc1cc(/C=C/c2ccc(OC)c(OC)c2)cc(OC)c1 ?
Marked response: N

Exam item: Same read-out for CCCCCCCC[N+](CCCC)(CCCC)CCCC (tested in a mixture with another compound) ?
Marked response: Y

Exam item: Same read-out for CC1=CC2OC3CC4OC(=O)/C=C/C=C/C(=O)OCCC(C)C(O)C(=O)OCC2(CC1O)C4(C)C31CO1 (stereo not given) ?
Marked response: Y

Exam item: Same read-out for CCN(CC)CC(=O)c1ccc2c(ccc3ccccc32)c1 ?
Marked response: N

Exam item: Same read-out for Nc1nc(-c2ccccc2)c(-c2ccccc2)[se]1 ?
Marked response: N

Exam item: Same read-out for C1CC[N-]CC1.C1CC[N-]CC1.N#CO.[Ag] ?
Marked response: Y

Exam item: Same read-out for CC#N.FC(F)(F)C#CC(F)(F)F.FC(F)(F)C#CC(F)(F)F.FC(F)(F)C#CC(F)(F)F.[W] ?
Marked response: Y

Exam item: Same read-out for CN(C)c1ccc(C2N(Cc3ccc(N(CCCl)CCCl)cc3Cl)CCCN2Cc2ccc(N(CCCl)CCCl)cc2Cl)cc1 ?
Marked response: N

Exam item: Same read-out for CC(=O)[CH-]C(C)=O.CC(=O)[CH-]C(C)=O.[CH2-]CCC.[CH2-]CCC.[Sn+4] ?
Marked response: N

###

Assay: NCI Yeast Anticancer Drug Screen. Data for the rad14 strain (AID 159);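 note: 0% = growth of vehicle-treated control cultures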
Conditions: S. cerevisiae rad14 strain growth inhibition; at 33.0 µM; active compounds read high
Protocol: Growth inhibition of yeast strains with defined genetic alterations is measured as a screen for potential anti-cancer activity. Selected strains with alterations in DNA damage repair or cell cycle control were exposed to compounds and growth inhibition was measured relative to vehicle treated controls. The strain used in this assay is rad14
The panel holds about 79,000 compounds, 15% with a hit somewhere; the sample as a whole holds those more often. Activity calls are given as the source filed them. No stated cut-off is given here; in the data, active means growth inhibition above about 70%; inactive means the rest.
Measurement Type: growth inhibition

>>> value_reported("CCCCN(CCCC)CC(C(C)=O)C(c1ccccc1)c1c(O)c2ccccc2oc1=O (centres undefined)")
"-2% (inactive)"

Exam item: Tell me the measured growth inhibition of O=S(=O)(O)c1ccc(Cl)cc1.[Cd] , please.
Marked response: 71% (active)

Exam item: Same read-out for CC1=C(O)C(=O)C=C2C1=CC=C1[C@@]2(C)CCC2(C)[C@@H]3C[C@@H](C)C(=O)C[C@]3(C)CC[C@]12C (some centres undefined) ?
Marked response: 97% (active)

Exam item: Same read-out for COC1CC(CC2CCC(C)C(C(C)C(=O)O)O2)OC2(OC(C)(C3CCC(C)(C4OC(C5OC(O)(CO)C(C)CC5C)CC4C)O3)CC2C)C1C (centres undefined) ?
Marked response: 89% (active)

###

Experiment: NCI Yeast Anticancer Drug Screen. Data for the sgs1 mgt1 strain (AID 161);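 note: 0% = growth of cultures given vehicle only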
Settings: S. cerevisiae sgs1 mgt1 strain, at 50.0 µM, active compounds read high
Procedure: Growth inhibition of yeast strains with defined genetic alterations is measured as a screen for potential anti-cancer activity. Selected strains with alterations in DNA damage repair or cell cycle control were exposed to compounds and growth inhibition was measured relative to vehicle treated controls. The strain used in this assay is sgs1 mgt1
Compounds without any hit were thinned out: in the full panel of roughly 79,000, 15% have a hit.
Measurement Type: growth inhibition (%)
The reply should be a number in %, with the unit left off.

>>> value_reported("CCCC[CH2][Sn]([CH2]CCCC)[CH2]CCCC.CCCC[CH2][Sn]([CH2]CCCC)[CH2]CCCC")
99.5
>>> value_reported("O=C1C(Br)=CC2(C=C1Br)CCNc1c(O)c3c4c(c12)=NCCC=4C=N3")
54.2
>>> value_reported("CC1([CH2][Hg][I])CS(=O)(=O)CC(C)([CH2][Hg][I])O1 (configuration not stated)")
97.3
>>> value_reported("O=C(COc1ccc(Cl)c(Cl)c1)N(Cc1ccccc1)Cc1ccc[n+](Cc2ccc(Cl)cc2S(=O)(=O)F)c1")
-0.3
>>> value_reported("Nc1nc(-c2ccccc2)c(-c2ccccc2)[se]1")
86.2

Exam item: Tell me the measured growth inhibition of O=C1C(F)=C(N2CC2)C(=O)C(F)=C1N1CC1 , please.
Marked response: 91

Exam item: Same read-out for [Br][Cd][Br].c1ccc([PH+](c2ccccc2)c2ccccc2)cc1.c1ccc([PH+](c2ccccc2)c2ccccc2)cc1 ?
Marked response: 94.9

FYI, the data here is from PubChem BioAssay (NCI).
